# system-tested: AMPK
# assay-explanation: AMPK activation, enzyme-linked immunosorbent assay
# Format: biochemical
# conditions: ELISA, Table 2
pEC50: −log10 of the molar value.
# Lookup of reported pEC50 keyed by entry

// below: answered compounds
N#Cc1ccc(CN2CCC(NC(=O)c3nc4ccc(OC5CCN(c6ccc(C(F)(F)F)cc6)CC5)cc4o3)CC2)cc1 [Compound 2]; > 7.00
NC(=O)c1ccc(CN2CC3CC2CN3C(=O)c2nc3ccc(OC4CCN(c5ccc(C(F)(F)F)cc5)CC4)cc3o2)cc1 (stereo not shown) [Compound 9]; 6.00 to 7.00
N#Cc1ccc(C(=O)N2CC3CC2CN3C(=O)c2nc3ccc(OC4CCN(c5ccc(C(F)(F)F)cc5)CC4)cc3o2)cc1 (stereo not shown) [Compound 12]; > 7.00
O=C(NC1CCNCC1)c1nc2ccc(OC3CCN(c4ccc(C(F)(F)F)cc4)CC3)cc2o1 [Compound 5]; 4.00 to 5.00
CC(C)(C)OC(=O)N1CCC(NC(=O)c2nc3ccc(OC4CCN(c5ccc(C(F)(F)F)cc5)CC4)cc3o2)CC1 [Compound 1]; > 7.00

Input: Could you tell me which pEC50 is on file for O=C(NC1CCN(C(=O)c2ccc(F)cc2)CC1)c1nc2ccc(OC3CCN(c4ccc(C(F)(F)F)cc4)CC3)cc2o1 [Compound 4] ?
Output: > 7.00

Input: Could you tell me which pEC50 is on file for O=C(c1ccc(F)cc1)N1CC2CC1CN2C(=O)c1nc2ccc(OC3CCN(c4ccc(C(F)(F)F)cc4)CC3)cc2o1 (stereo not shown) [Compound 13] ?
Output: > 7.00

====

# system-tested: AMPK
# assay-explanation: AMPK activation, enzyme-linked immunosorbent assay
# Format: biochemical
# conditions: ELISA, Table 6
reported-property: EC50

// below: answered compounds
CC(C)(C)OC(=O)N1CCC(Oc2ncc(C(=O)NC3CCN(Cc4ccc(C#N)cc4)CC3)s2)CC1 [Compound 26]; 1 to 10 µM
N#Cc1ccc(CN2CCC(NC(=O)c3cnc(OC4CCN(c5ccc(C(F)(F)F)cc5)CC4)s3)CC2)cc1 [Compound 23]; < 0.1 µM
N#Cc1ccc(CN2CCC(NC(=O)c3cnc(OC4CCN(Cc5ccc(C(F)(F)F)cc5)CC4)s3)CC2)cc1 [Compound 25]; < 0.1 µM

Shifting focus to the compound that follows.
Input: Could you tell me which EC50 is on file for N#Cc1ccc(CN2CCC(NC(=O)c3cnc(OC4CCN(c5ccc(C#N)cc5)CC4)s3)CC2)cc1 [Compound 24] ?
Output: < 0.1 µM

====

# Lookup of reported EC50 keyed by entry
# system-tested: AMPK
# assay-explanation: AMPK activation, enzyme-linked immunosorbent assay
# Type: biochemical
# conditions: ELISA, Table 7

N#Cc1ccc(CN2CCC(NC(=O)c3ccc(C(=O)N4CCN(c5ccc(Cl)cc5)CC4)cc3)CC2)cc1; 10 to 100 µM

Input: Could you tell me which EC50 is on file for N#Cc1ccc(CN2CCC(NC(=O)c3ccc(C(=O)N4CCN(c5ccc(C(F)(F)F)cn5)CC4)cc3)CC2)cc1 ?
Output: < 0.1 µM

Input: Could you tell me which EC50 is on file for N#Cc1ccc(CN2CCC(NC(=O)c3ccc(C(=O)NC4CCN(Cc5ccccc5)CC4)cc3)CC2)cc1 ?
Output: 10 to 100 µM

Input: Could you tell me which EC50 is on file for N#Cc1ccc(CN2CCC(NC(=O)c3ccc(C(=O)NC4CCN(c5ccccc5)CC4)cc3)CC2)cc1 ?
Output: 10 to 100 µM

Input: Could you tell me which EC50 is on file for N#Cc1ccc(CN2CCC(NC(=O)c3ccc(C(=O)N4CCN(Cc5ccc(Cl)cc5)CC4)cc3)CC2)cc1 ?
Output: < 0.1 µM

Input: Could you tell me which EC50 is on file for N#Cc1ccc(CN2CCC(NC(=O)c3ccc(C(=O)NC4CCN(Cc5ccc(C(F)(F)F)cc5)CC4)cc3)CC2)cc1 ?
Output: < 0.1 µM

====

# system-tested: AMPK
# assay-explanation: AMPK activation, enzyme-linked immunosorbent assay
# Type: biochemical
# conditions: ELISA, Table 2
pEC50: −log10 of the molar value.
# Lookup of reported pEC50 keyed by entry

O=C(c1nc2ccc(OC3CCN(c4ccc(C(F)(F)F)cc4)CC3)cc2o1)N1CC2CC1CN2Cc1ccncc1 (centres unmarked); 6.00 to 7.00

Input: Could you tell me which pEC50 is on file for N#Cc1ccc(CN2CC3CC2CN3C(=O)c2nc3ccc(OC4CCN(c5ccc(C(F)(F)F)cc5)CC4)cc3o2)cc1 (centres unmarked) ?
Output: 6.00 to 7.00

Input: Could you tell me which pEC50 is on file for O=C(c1ccncc1)N1CC2CC1CN2C(=O)c1nc2ccc(OC3CCN(c4ccc(C(F)(F)F)cc4)CC3)cc2o1 (centres unmarked) ?
Output: 6.00 to 7.00

Input: Could you tell me which pEC50 is on file for O=C(NC1CCN(Cc2ccncc2)CC1)c1nc2ccc(OC3CCN(c4ccc(C(F)(F)F)cc4)CC3)cc2o1 ?
Output: > 7.00

Input: Could you tell me which pEC50 is on file for N#Cc1ccc(C(=O)N2CCC(NC(=O)c3nc4ccc(OC5CCN(c6ccc(C(F)(F)F)cc6)CC5)cc4o3)CC2)cc1 ?
Output: > 7.00

====

# Lookup of reported EC50 keyed by entry
# system-tested: AMPK
# assay-explanation: AMPK activation, enzyme-linked immunosorbent assay
# Type: biochemical
# conditions: ELISA, Table 5

Input: Could you tell me which EC50 is on file for O=C(NC1CCNCC1)c1cnc(OC2CCN(c3ccc(C(F)(F)F)cc3)CC2)cn1 ?
Output: > 100000 nM

Input: Could you tell me which EC50 is on file for O=C(NC1CCN(Cc2ccncc2)CC1)c1cnc(OC2CCN(c3ccc(C(F)(F)F)cc3)CC2)cn1 ?
Output: < 100 nM

Input: Could you tell me which EC50 is on file for N#Cc1ccc(CN2CCC(NC(=O)c3cnc(OC4CCN(c5ccc(C(F)(F)F)cc5)CC4)cn3)CC2)cc1 ?
Output: < 100 nM

Input: Could you tell me which EC50 is on file for CC(C)(C)OC(=O)N1CCC(NC(=O)c2cnc(OC3CCN(c4ccc(C(F)(F)F)cc4)CC3)cn2)CC1 ?
Output: 1000 to 10000 nM

====

# system-tested: AMPK
# assay-explanation: AMPK activation, enzyme-linked immunosorbent assay
# Format: biochemical
# conditions: ELISA, Table 8
# Description: Compounds 1-13 were assayed for their ability to activate AMPK using an enzyme-linked immunosorbent assay. Compounds 14-16 were assayed for their ability to activate AMPK using an enzyme-linked immunosorbent assay. Compounds 17-18 were assayed for their ability to activate AMPK using an enzyme-linked immunosorbent assay. Compounds 19-22 were assayed for their ability to activate AMPK using an enzyme-linked immunosorbent assay. […]
reported-property: EC50

// below: answered compounds
N#Cc1ccc(CN2CCc3ccc(C(=O)NC4CCN(Cc5cccnc5)CC4)cc3C2)cc1; < 100 nM
O=C(NC1CCN(Cc2cccnc2)CC1)c1ccc2c(c1)CN(Cc1ccc(F)cc1)CC2; 1000 to 10000 nM

Input: Could you tell me which EC50 is on file for N#Cc1ccc(CN2CCC(NC(=O)c3ccc4c(c3)CN(Cc3ccc(F)cc3)CC4)CC2)cc1 ?
Output: < 100 nM

Input: Could you tell me which EC50 is on file for O=C(NC1CCN(Cc2ccc(C(F)(F)F)cc2)CC1)c1ccc2c(c1)CN(Cc1ccc(F)cc1)CC2 ?
Output: 100 to 1000 nM

Input: Could you tell me which EC50 is on file for N#Cc1ccc(CN2CCc3ccc(C(=O)NC4CCN(Cc5ccc(C(F)(F)F)cc5)CC4)cc3C2)cc1 ?
Output: 1000 to 10000 nM

Input: Could you tell me which EC50 is on file for N#Cc1ccc(CN2CCC(NC(=O)c3ccc4c(c3)CN(Cc3ccc(C#N)cc3)CC4)CC2)cc1 ?
Output: < 100 nM
